- protocol_details: NCI Yeast Anticancer Drug Screen. Data for the sgs1 mgt1 strain (AID 161)
- condition_label: S. cerevisiae sgs1 mgt1 strain, at 50.0 µM, active compounds read high
This is part of a sample that, as a whole, favours compounds with a hit. Of some 79,000 tested, about 15% had one in any assay.
Please mark TRUE if the recorded growth inhibition is equal to or greater than 90%, and FALSE if it falls below.

| molecule | label_value |
| --- | --- |
| COc1ccc(CC[N+]2(C)COc3cc4oc(=O)cc(C)c4cc3C2)cc1OC (centres undefined) | FALSE |
| Oc1c(Br)cc(Cl)cc1C(c1cc(Cl)cc(Br)c1O)C(Cl)(Cl)Cl | TRUE |
| CC(C)(C)C(=O)CC(=O)C(F)(F)C(F)(F)C(F)(F)F.CC(C)(C)C(=O)CC(=O)C(F)(F)C(F)(F)C(F)(F)F.CC(C)(C)C(=O)CC(=O)C(F)(F)C(F)(F)C(F)(F)F.[Fe] | FALSE |
| CCC[CH2][Sn]1([CH2]CCC)[O]C(=O)CN=Cc2c(ccc3ccccc23)[O]1 | TRUE |
| CC(C)(C)CC(C)(C)c1ccc(O)c(O)c1 | TRUE |
| CCCCN(CCC=C1c2ccccc2Oc2ccccc21)CCCC | TRUE |
| OCc1cccc2c1Oc1ccccc1S2 | FALSE |
| O=C1c2ccccc2C(=O)c2sc(Nc3ccc(Cl)cc3)nc21 | TRUE |

These measurements were taken from PubChem BioAssay (NCI).
